- STUDY_TARGET: NKp30 on human NK cells (human) (UniProt O14931)
- Sequence (O14931 19-201): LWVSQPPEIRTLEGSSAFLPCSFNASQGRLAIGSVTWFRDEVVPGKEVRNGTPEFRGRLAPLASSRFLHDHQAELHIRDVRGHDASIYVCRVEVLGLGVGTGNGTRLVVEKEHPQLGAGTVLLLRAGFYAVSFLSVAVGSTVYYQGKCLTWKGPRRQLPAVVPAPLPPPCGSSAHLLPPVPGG
- TEST_SUMMARY: cell-based or functional assay
QUANTITY_MEASURED: A431 EC50 with PBMC (pM)

BINDER: ΔB7-H6_S3#29-SEED-PGLALA (bispecific antibody, part only; not given: SEED Fc chains and hu225 EGFR Fab, part only) chain, part: DLKVEMMAGGTQITPLNDNVTIFCNIFYSQPLNITVMGITWFWKSLTFDKEVKVFEFWGDHQEAFRPGAIVSPWRLKSGDASLRLPGIQLEEAGEYRCEVIVTPYKAQGTVQLEVVASPAS
MEASURED_VALUE: 33.6
//
BINDER: ΔB7-H6_S3#31-SEED-PGLALA (bispecific antibody, part only; not given: SEED Fc chains and hu225 EGFR Fab, part only) chain, part: DLKVEMMAGGTQITPLNDNVTIFCNIFYSQPLNITIMGITWFWKSLTFDKEVKVFEFYGDHQEAFRPGAIVSPWRLKSGDASLRLPGIQLEEAGEYRCEVVVTPLKAQGTVQLEVVASPAS
MEASURED_VALUE: 34.8
//
BINDER: ΔB7-H6_wt-SEED-PGLALA (bispecific antibody, part only; not given: SEED Fc chains and hu225 Fab, part only) chain, part: DLKVEMMAGGTQITPLNDNVTIFCNIFYSQPLNITSMGITWFWKSLTFDKEVKVFEFFGDHQEAFRPGAIVSPWRLKSGDASLRLPGIQLEEAGEYRCEVVVTPLKAQGTVQLEVVASPAS
MEASURED_VALUE: 1840
//
BINDER: ΔB7-H6_S3#16-SEED-PGLALA (bispecific antibody, part only; not given: SEED Fc chains and hu225 Fab, part only) chain, part: DLKVEMMAGGTQITPLNDNVTIFCNIFYSQPLNITLMGITWFWKSLTFDKEVKVFEFYGDHQEAFRPGAIVSPWRLKSGDASLRLPGIQLEEAGEYRCEVVVTPYKAQGTVQLEVVASPAS
MEASURED_VALUE: 87.3
//
BINDER: ΔB7-H6_S3#14-SEED-PGLALA (bispecific antibody, part only; not given: SEED Fc chains and hu225 Fab, part only) chain, part: DLKVEMMAGGTQITPLNDNVTIFCNIFYSQPLNITTMGITWFWKSLTFDKEVKVFEFYGDHQEAFRPGAIVSPWRLKSGDASLRLPGIQLEEAGEYRCEVVVTPYKAQGTVQLEVVASPAS
MEASURED_VALUE: 150
//
BINDER: ΔB7-H6_S3#24-SEED-PGLALA (bispecific antibody, part only; not given: SEED Fc chains and hu225 Fab, part only) chain, part: DLKVEMMAGGTQITPLNDNVTIFCNIFYSQPLNITIMGITWFWKSLTFDKEVKVFEFYGDHQEAFRPGAIVSPWRLKSGDASLRLPGIQLEEAGEYRCEVVVTPYKAQGTVQLEVVASPAS
MEASURED_VALUE: 39.7
